# test_description: qHTS assay for measurement of the activity of small molecule inhibitors on Zika virus induced Caspase-3 activity in human iPSC derived neural progenitor cells (hNPCs) (AID 1224857); note: nearly all actives have a fitted effect of over 65% in size
# experimental_conditions: hNPCs ZIKV-induced caspase-3/7, Caspase-Glo luminescence, 6 h; series mostly up to 45.7 µM
Records with an inconclusive call do not appear. Active and inactive are the calls of the source. Calls come from the whole dose curve; as a rule, active = well fitted inhibition curve with a large enough effect; inconclusive = small, poorly fitted or top-dose-only effect; inactive = no such curve, though single readings can be large or run the other way.
Outcomes: active, inactive

{"compound": "COC[C@H]1OC(=O)c2coc3c2[C@@]1(C)C1=C(C3=O)[C@@H]2CC[C@H](O)[C@@]2(C)C[C@@H]1OC(C)=O", "assigned_label": "inactive"}
{"compound": "CCC(=O)OC1CCC2C3CCC4=CC(=O)CC[C@@]4(C)C3CC[C@]12C (stereo partly drawn)", "assigned_label": "inactive"}
{"compound": "NC(=NCCC[C@H](N)C(=O)O)N[N+](=O)[O-]", "assigned_label": "inactive"}
{"compound": "CC(C)N[C@@H]1CCn2c(=O)[nH]c3cccc(c32)[C@@H]1O", "assigned_label": "active"}
{"compound": "CCCCCCCCc1ccc(O)cc1", "assigned_label": "inactive"}
{"compound": "CC(O)=C(C#N)C(=O)Nc1cc(Br)ccc1Br", "assigned_label": "inactive"}
{"compound": "CCCN1CCC[C@H](c2cccc(O)c2)C1", "assigned_label": "inactive"}
{"compound": "CCC(=O)O[C@@H]1C=C2CCC3C(CCC4(C)C3CC[C@@H]4OC(=O)CC)C2CC1 (stereo partly drawn)", "assigned_label": "inactive"}
{"compound": "CC(=O)OCC1=C(C(=O)O)N2C(=O)[C@@H](N)[C@@H]2SC1", "assigned_label": "inactive"}
{"compound": "CN[C@@H]1Cc2cccc3[nH]c(=O)n(c23)C1", "assigned_label": "inactive"}
{"compound": "O=C1C=CC[C@@H]2[C@H]3CCCN4CCC[C@@H](CN12)[C@@H]34", "assigned_label": "active"}
{"compound": "COC(=O)c1cncn1C(C)c1ccccc1 (stereo not drawn)", "assigned_label": "inactive"}
{"compound": "Oc1ccc2c3c1O[C@H]1[C@@H](O)C=C[C@H]4[C@@H](C2)NCC[C@@]341", "assigned_label": "inactive"}
{"compound": "Cc1ccccc1-n1c(Cn2ncc3c(N)ncnc32)nc2cccc(C)c2c1=O", "assigned_label": "inactive"}
{"compound": "CC(=Cc1csc(C)n1)[C@@H]1C[C@H]2O[C@]2(C)CCC[C@H](C)[C@@H](O)[C@@H](C)C(=O)C(C)(C)[C@@H](O)CC(=O)O1", "assigned_label": "inactive"}
{"compound": "C[N+](C)(C)CC(=O)O", "assigned_label": "inactive"}
{"compound": "CNCCc1c[nH]c2ccc(O)cc12", "assigned_label": "inactive"}
{"compound": "CO/C=C(/C(=O)OC)c1ccccc1Oc1cc(Oc2ccccc2C#N)ncn1", "assigned_label": "inactive"}
{"compound": "C[C@]12COC(=O)C[C@@H]1CC[C@@H]1[C@H]2CC[C@@]2(C)[C@H]1CC[C@]2(C)O", "assigned_label": "inactive"}
{"compound": "Cc1[nH]nc2ccc(-c3cncc(OC[C@@H](N)Cc4c[nH]c5ccccc45)c3)cc12", "assigned_label": "inactive"}
{"compound": "COCCOCCO", "assigned_label": "inactive"}
{"compound": "C[C@](O)(COc1ccc(C#N)cc1)C(=O)Nc1ccc(C#N)c(C(F)(F)F)c1", "assigned_label": "inactive"}
{"compound": "Nc1ccc(Sc2ccc(N)cc2)cc1", "assigned_label": "inactive"}
